# Test system: K562 CRISPRi cells
# assayProcedure: Constant region variant library pooled growth screen, K562
# Type: cell-based, human
# conditionInfo: sgRNA constant region variants; relative to the original, un-modified constant region cr995 (= 1)
assayReadout: Mean relative activity

Sample records with Mean relative activity:
molecule: cr140 (nucleic acid, listed as DNA, chemistry not fully specified) guide: GTTTAAGAGCTAAGCTGGAAACAGCATAGCAAGTTTAAATAAGGCTAGTCCGTTATCAATCTGAAAAGATGGCACCGAGTCGGTGCT
Mean relative activity: 1.023
//
molecule: cr701 (nucleic acid, listed as DNA, chemistry not fully specified) guide: GTTTAAGAGCTAAGCTGGAAACAGCATAGCAAGTTTAAATAAGGCTAGTCCGTTATCAACTTGAAAAAGTGGCACCGACTCGGTGCT
Mean relative activity: 1.016
//
molecule: cr302 (nucleic acid, listed as DNA, chemistry not fully specified) guide: GTTTAAGAGCTAAGCTGGAAACAGCATAGCAAGTTTAAATAAGGCTAGTCCGTTATCAACGTGAAAACGTGGTCCCGAGTCGGGACT
Mean relative activity: 1.016

Given item cr653 (nucleic acid, listed as DNA, chemistry not fully specified) guide: GTTTAAGAGCTAAGCTGGAAACAGCATAGCAAGTTTAAATAAGGCTAGTCCGTTATCAACTTGAAAAAGTGGCACAGAGTCTGTGCT , the value recorded as its Mean relative activity is 0.9907
